Numbers sourced from patent US10570117B2.

Quick reference for solubility at 24 h among some compounds
measurement protocol: Solubility in gastric juice or intestinal juice model fluid (precipitation method using DMSO)
Assay type: physicochemical
condition: pH 6.8, kinetic from dmso stock, 2nd fluid for Disintegration Test of Japanese Pharmacopoeia (pH: 6.8), room temperature, read-out: Solubility (μg/mL) 2nd fluid

Here are 3 compounds together with their reported answers.
| compound | reported endpoint | experimental value |
| --- | --- | --- |
| Fc1ccc(-c2nc(Cl)c(-c3ccc(OCc4ncc(C(F)(F)F)cc4F)cc3Cl)[nH]2)cn1 | solubility at 24 h | < 0.4 µg/mL |
| COc1cc(OCc2ncc(C(F)(F)F)cc2F)ccc1-c1[nH]c(C2CC(F)(F)C2)nc1Cl | solubility at 24 h | 0.5 µg/mL |
| CCOC(C)n1cc(-c2ccc(OCc3ccc(C(F)(F)F)nc3)cc2OC)nc1-c1ccc(F)nc1 (centres unmarked) | solubility at 24 h | 0.4 µg/mL |

solubility at 24 h lookup needed for "Fc1ccc(-c2ncc(-c3ccc(OCc4ncc(C(F)(F)F)cc4F)cc3F)[nH]2)cn1" , thanks. < 0.3 µg/mL

solubility at 24 h lookup needed for "COc1cc(OCc2ccc(C(F)(F)F)nc2)ccc1-c1cnc(-c2ccc(Br)nc2)[nH]1" , thanks. < 0.4 µg/mL
